# log10 IC50 per record follows
Molecular target: human recombinant PDE5 (Homo sapiens, UniProt O76074)
Assay: Inhibitory effect on cGMP-PDE (PDE5 IC50, one-step assay)
Conditions: human recombinant PDE5, 0.15 μM 8-[H3]-cGMP, 30 minutes incubation
The figures below represent log10 of IC50, where IC50 is stated in nM.

S=C(NCc1ccc(Cl)cc1Cl)N1CCc2c([nH]c3ccccc23)[C@H]1c1ccc2c(c1)OCO2 = 2.10
O=S(=O)(/C=C/c1ccccc1)N1CCc2c([nH]c3ccccc23)C1c1ccc2c(c1)OCO2 (centres unmarked) [Example 41a] = 2.83
O=S(=O)(/C=C/c1ccccc1)N1CCc2c([nH]c3ccccc23)[C@H]1c1ccc2c(c1)OCO2 [Example 41b] = 2.62
FC(F)(F)c1cc(NC(=S)N2CCc3c([nH]c4ccccc34)[C@H]2c2ccc3c(c2)OCO3)ccc1Cl = 1.92
O=C(NCc1ccccc1)N1CCc2c([nH]c3ccccc23)C1c1ccccc1 (centres unmarked) = 2.90

Documented log10 IC50 of "C[C@H](NC(=O)N1CCc2c([nH]c3ccccc23)[C@H]1c1ccc2c(c1)OCO2)c1ccccc1" : 1.11

Documented log10 IC50 of "Fc1ccccc1CNC(=S)N1CCc2c([nH]c3ccccc23)[C@H]1c1ccc2c(c1)OCO2" : 1.60

Documented log10 IC50 of "O=C(CC(=O)N1CCc2c([nH]c3ccccc23)[C@H]1c1ccc2c(c1)OCO2)c1ccccc1" : 1.46
